Test system: CD2F1 mice, L1210 leukemia ip, survival T/C
experiment: NCI In Vivo Anticancer Drug Screen. Data for tumor model L1210 Leukemia (intraperitoneal) in CD2F1 (CDF1) mice
condition: endpoint: mean survival time; dose: 400.0 mg/kg/injection; schedule: Q04DX003 (ip); vehicle: saline; higher = longer survival
Inconclusive results and toxic doses are left out.
Listing of recorded T/C by entry.

[
  {
    "compound": "N#CC(CCN1CCCCC1)(c1ccccc1)c1ccccc1",
    "T/C": "97 % of control"
  },
  {
    "compound": "CC(=O)OCc1ccc(/C=N/Nc2ccc([N+](=O)[O-])cc2[N+](=O)[O-])cc1Br",
    "T/C": "100 % of control"
  },
  {
    "compound": "O=c1sc2ccccc2n1CCSCCn1c(=S)sc2ccccc21",
    "T/C": "96 % of control"
  },
  {
    "compound": "COC1CC2c3ccccc3C1C(C)=[N+]2C (stereo unspecified)",
    "T/C": "94 % of control"
  },
  {
    "compound": "CCOP(=O)(OCC)C(C)OC (stereo unspecified)",
    "T/C": "97 % of control"
  },
  {
    "compound": "COc1ccc(-c2nc(N)nc3c2CN(CCCC(=O)O)C3=O)cc1",
    "T/C": "96 % of control"
  }
]

* * *

System: CD2F1 mice, L1210 leukemia ip, survival T/C
experiment: NCI In Vivo Anticancer Drug Screen. Data for tumor model L1210 Leukemia (intraperitoneal) in CD2F1 (CDF1) mice
condition: endpoint: mean survival time; dose: 50.0 mg/kg/injection; schedule: Q04DX003 (ip); vehicle: saline with Tween-80; higher = longer survival
Toxic doses and inconclusive results are not listed.
Listing of recorded T/C by entry.

[
  {
    "molecule": "CCCCCCCCCCCCCCCC(=O)N(CCCN(C)C)C1CCC(N(CCCN(C)C)C(=O)CCCCCCCCCCCCCCC)CC1 (stereo unspecified)",
    "T/C": "102 % of control"
  },
  {
    "molecule": "CNC(=O)Oc1c(Cl)c(C(Cl)(Cl)Cl)nc2ccccc12",
    "T/C": "97 % of control"
  },
  {
    "molecule": "O=C(O)C(O)C(O)C(O)C(O)CO.[Mn] (stereo unspecified)",
    "T/C": "100 % of control"
  },
  {
    "molecule": "CN(C)c1ccc(/C=N/NC(=O)NN)cc1",
    "T/C": "104 % of control"
  },
  {
    "molecule": "CN(C)C=NC1(c2ccccc2)CCCCC1",
    "T/C": "92 % of control"
  },
  {
    "molecule": "N#Cc1ccc([N+](=O)[O-])o1",
    "T/C": "96 % of control"
  }
]

* * *

Listing of recorded T/C by entry.
Tested on: CD2F1 mice, L1210 leukemia ip, survival T/C
experiment: NCI In Vivo Anticancer Drug Screen. Data for tumor model L1210 Leukemia (intraperitoneal) in CD2F1 (CDF1) mice
condition: endpoint: median survival time; dose: 12.5 mg/kg/injection; schedule: Q01DX009 (ip); vehicle: saline; higher = longer survival
Toxic doses and inconclusive results are not listed.

[
  {
    "compound": "CN=C(N)N/N=C(\\c1ccccc1)c1ccc(Br)cc1",
    "assayed-system": "CD2F1 mice, L1210 leukemia ip, survival T/C",
    "T/C": "107 % of control"
  },
  {
    "compound": "c1cn[nH]c1",
    "assayed-system": "CD2F1 mice, L1210 leukemia ip, survival T/C",
    "T/C": "95 % of control"
  },
  {
    "compound": "C=C1C(=O)OC2CC(C)C3C4OC4C(O)C3(C)C(O)C12 (stereo not given)",
    "assayed-system": "CD2F1 mice, L1210 leukemia ip, survival T/C",
    "T/C": "101 % of control"
  },
  {
    "compound": "CN(C)C(=O)Nc1ccc(Cl)cc1",
    "assayed-system": "CD2F1 mice, L1210 leukemia ip, survival T/C",
    "T/C": "100 % of control"
  },
  {
    "compound": "CCc1ncnc2cc(OCC3CO3)c(OC)cc12 (stereo not given)",
    "assayed-system": "CD2F1 mice, L1210 leukemia ip, survival T/C",
    "T/C": "121 % of control"
  }
]

* * *

Tested on: CD2F1 mice, L1210 leukemia ip, survival T/C
experiment: NCI In Vivo Anticancer Drug Screen. Data for tumor model L1210 Leukemia (intraperitoneal) in CD2F1 (CDF1) mice
condition: endpoint: mean survival time; dose: 12.5 mg/kg/injection; schedule: Q01DX009 (ip); vehicle: saline; higher = longer survival
Inconclusive results and toxic doses are left out.
value-kind: T/C

[
  {
    "molecule": "COC1C(/C=C/C(C)=O)OC2OC(C)(C)OC21 (stereo not drawn)",
    "measurement": "110 % of control"
  },
  {
    "molecule": "CC(=O)OCCN1CCN(CCCN2c3ccccc3Sc3ccc(C(F)(F)F)cc32)CC1",
    "measurement": "100 % of control"
  },
  {
    "molecule": "O=S(=O)(O)SCCN1CCCCC1",
    "measurement": "104 % of control"
  },
  {
    "molecule": "O=S(=O)(O)SNCCN1CCOCC1",
    "measurement": "98 % of control"
  },
  {
    "molecule": "ClC1CCC[N-]C1.ClC1CCC[N-]C1.[Cl][Pt+2][Cl] (stereo not drawn)",
    "measurement": "89 % of control"
  },
  {
    "molecule": "O=C(O)C(CSC(c1ccccc1)(c1ccccc1)c1ccccc1)N=Cc1cccs1 (stereo not drawn)",
    "measurement": "109 % of control"
  },
  {
    "molecule": "COC(=O)C1=CCCN(C)C1",
    "measurement": "98 % of control"
  },
  {
    "molecule": "OCC1OC(n2cnc3c(Cl)ncnc32)C(O)C1O (stereo not drawn)",
    "measurement": "86 % of control"
  }
]

* * *

Listing of recorded T/C by entry.
Test system: CD2F1 mice, L1210 leukemia ip, survival T/C
experiment: NCI In Vivo Anticancer Drug Screen. Data for tumor model L1210 Leukemia (intraperitoneal) in CD2F1 (CDF1) mice
condition: endpoint: mean survival time; dose: 400.0 mg/kg/injection; schedule: Q01DX001 (ip); vehicle: saline with Tween-80; higher = longer survival
Toxic doses and inconclusive results are not listed.

[
  {
    "compound": "CC(=O)NC(C=O)C(O)C1OC(c2ccccc2)OCC1O (stereo not drawn)",
    "assayed-system": "CD2F1 mice, L1210 leukemia ip, survival T/C",
    "T/C": "94 % of control"
  },
  {
    "compound": "O=[N+]([O-])c1ccc2[nH]ncc2c1",
    "assayed-system": "CD2F1 mice, L1210 leukemia ip, survival T/C",
    "T/C": "100 % of control"
  },
  {
    "compound": "COC(=O)COS(=O)(=O)c1ccc(C)cc1",
    "assayed-system": "CD2F1 mice, L1210 leukemia ip, survival T/C",
    "T/C": "100 % of control"
  },
  {
    "compound": "CCOc1ccc(-n2c(O)c(N=Nc3ccccc3OC)c(=O)n(-c3ccc(OC)cc3)c2=S)cc1",
    "assayed-system": "CD2F1 mice, L1210 leukemia ip, survival T/C",
    "T/C": "94 % of control"
  },
  {
    "compound": "CC(C)(C)N",
    "assayed-system": "CD2F1 mice, L1210 leukemia ip, survival T/C",
    "T/C": "97 % of control"
  },
  {
    "compound": "CCOC(=O)c1cnc(SC)nc1NC(C)c1ccccc1 (stereo not drawn)",
    "assayed-system": "CD2F1 mice, L1210 leukemia ip, survival T/C",
    "T/C": "89 % of control"
  },
  {
    "compound": "CN1CC(=O)C(=N)C1=S",
    "assayed-system": "CD2F1 mice, L1210 leukemia ip, survival T/C",
    "T/C": "90 % of control"
  },
  {
    "compound": "O=C(c1ccccc1)C(c1ccccc1)C(SCc1ccccc1)c1ccccc1 (stereo not drawn)",
    "assayed-system": "CD2F1 mice, L1210 leukemia ip, survival T/C",
    "T/C": "98 % of control"
  },
  {
    "compound": "c1csc(CCc2nc3ccccc3o2)c1",
    "assayed-system": "CD2F1 mice, L1210 leukemia ip, survival T/C",
    "T/C": "112 % of control"
  },
  {
    "compound": "CC(=O)c1cccc(OC(=O)c2ccccc2)c1",
    "assayed-system": "CD2F1 mice, L1210 leukemia ip, survival T/C",
    "T/C": "104 % of control"
  },
  {
    "compound": "O=c1[nH]cc(S(=O)(=O)Nc2ccccc2)c(=O)[nH]1",
    "assayed-system": "CD2F1 mice, L1210 leukemia ip, survival T/C",
    "T/C": "96 % of control"
  },
  {
    "compound": "CCOC(=O)/C=C/c1cccc([N+](=O)[O-])c1",
    "assayed-system": "CD2F1 mice, L1210 leukemia ip, survival T/C",
    "T/C": "108 % of control"
  },
  {
    "compound": "CC1CCC(NC(=O)NCCCl)CC1 (stereo not drawn)",
    "assayed-system": "CD2F1 mice, L1210 leukemia ip, survival T/C",
    "T/C": "101 % of control"
  },
  {
    "compound": "CCCCCCCCCCCCOc1ccc(Cl)cc1Sc1cc(Cl)ccc1OCCCCCCCCCCCC",
    "assayed-system": "CD2F1 mice, L1210 leukemia ip, survival T/C",
    "T/C": "86 % of control"
  },
  {
    "compound": "O=[N+]([O-])c1ccc(NCS(=O)(=O)O)cc1",
    "assayed-system": "CD2F1 mice, L1210 leukemia ip, survival T/C",
    "T/C": "87 % of control"
  },
  {
    "compound": "COc1ccc(CCF)cc1",
    "assayed-system": "CD2F1 mice, L1210 leukemia ip, survival T/C",
    "T/C": "114 % of control"
  },
  {
    "compound": "Cc1cccc(N/N=C2\\CCSc3ccccc32)c1",
    "assayed-system": "CD2F1 mice, L1210 leukemia ip, survival T/C",
    "T/C": "103 % of control"
  },
  {
    "compound": "CCC(CCC(C)C1CCC2C3CC=C4CC(I)CCC4(C)C3CCC12C)C(C)C (stereo not drawn)",
    "assayed-system": "CD2F1 mice, L1210 leukemia ip, survival T/C",
    "T/C": "94 % of control"
  },
  {
    "compound": "Nc1ccc2c(c1)C(=O)OC2(C(F)(F)F)C(F)(F)F",
    "assayed-system": "CD2F1 mice, L1210 leukemia ip, survival T/C",
    "T/C": "102 % of control"
  },
  {
    "compound": "CC1=C/C(=N/Nc2ccc([N+](=O)[O-])cc2[N+](=O)[O-])CC(C)(C)C1",
    "assayed-system": "CD2F1 mice, L1210 leukemia ip, survival T/C",
    "T/C": "95 % of control"
  },
  {
    "compound": "CC(=O)Nc1cc2ccccc2c2ccc3ccccc3c12",
    "assayed-system": "CD2F1 mice, L1210 leukemia ip, survival T/C",
    "T/C": "102 % of control"
  },
  {
    "compound": "O=C(OCCO)c1oc2ccccc2c1OCCO",
    "assayed-system": "CD2F1 mice, L1210 leukemia ip, survival T/C",
    "T/C": "102 % of control"
  },
  {
    "compound": "SCc1ccccc1",
    "assayed-system": "CD2F1 mice, L1210 leukemia ip, survival T/C",
    "T/C": "105 % of control"
  }
]
